molecular target: Concanavalin-A (Canavalia ensiformis) (UniProt P02866); assay: compounds binding concanavalin A lectin – biochemical, small-molecule microarray, Alexa647 label, 635 nm, artefact control for SMM control protein annotation, primary screen (AID 1127); details: ConA-A647 binding fluorescence, higher = more signal;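 further: z combines 667 nm emission intensity with signal-to-noise across three replicate slides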
Sequence (P02866 whole entry, looked up): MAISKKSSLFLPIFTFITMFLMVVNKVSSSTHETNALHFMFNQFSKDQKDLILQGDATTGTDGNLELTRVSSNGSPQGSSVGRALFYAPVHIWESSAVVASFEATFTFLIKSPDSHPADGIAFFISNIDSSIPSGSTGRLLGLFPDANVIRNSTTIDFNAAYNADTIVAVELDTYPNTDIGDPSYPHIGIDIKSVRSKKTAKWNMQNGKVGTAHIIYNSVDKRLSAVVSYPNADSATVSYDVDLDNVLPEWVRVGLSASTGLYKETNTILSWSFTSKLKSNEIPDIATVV
MEASURED ENDPOINT: composite z-score
API doc: respond with a numeric literal and nothing else, no unit.

Recorded results for 6 compounds are shown here.
Enquiry: Give its composite z-score value. Item: [N-]=[N+]=NCc1ccccc1C[C@@]1(C(=O)NCC(O)CO)N=C(c2ccc(OCCCO)cc2)O[C@@H]1c1ccccc1 (some centres not stated)
Return: -1.11

Enquiry: Give its composite z-score value. Item: O=C1O[C@@H](c2ccccc2)[C@@H](c2ccccc2)N2[C@@H](c3ccccc3OCCO)[C@]3(C(=O)Nc4ccc(C#CC5(O)CCCCCC5)cc43)[C@@H](C(=O)N3CCN(c4ncccn4)CC3)[C@H]12
Return: 1.02

Enquiry: Give its composite z-score value. Item: NC(=O)[C@@]1(Cc2ccccc2)N=C(c2ccc(OCCCO)cc2)O[C@H]1c1ccccc1
Return: 0.737

Enquiry: Give its composite z-score value. Item: O=C1O[C@H](c2ccccc2)[C@H](c2ccccc2)N2[C@H]1[C@@H](C(=O)N1CCN(c3ncccn3)CC1)[C@]1(C(=O)Nc3ccc(C#CC4=CCCCC4)cc31)[C@H]2c1ccccc1OCCO
Return: 1.16

Enquiry: Give its composite z-score value. Item: O=C(NCc1ccccc1)[C@@H]1c2ccccc2C(=O)N(C2Cc3ccccc3C2)[C@H]1c1ccc(CO)cc1
Return: 0.899

Enquiry: Give its composite z-score value. Item: CN(C)CCCC[C@@H]1NC(=O)[C@H]2C[C@@H](C(=O)NCCCCCN)[C@@H](c3cccc(OCCO)c3)N2C1=O
Return: 1.12

// moving on: another record for composite z-score
Enquiry: Give its composite z-score value. Item: COC(=O)c1c(CC[C@@H](CO)NC(=O)N[C@H](Cc2ccccc2)Cn2cc(-c3ccccn3)nn2)oc(C(C)=O)c1C(=O)OC
Return: 1.09

* * *

biological target: Concanavalin-A (Canavalia ensiformis) (UniProt P02866); assay: compounds binding concanavalin A lectin – biochemical, small-molecule microarray, Alexa647 label, 635 nm, artefact control for SMM control protein annotation, primary screen (AID 1127); details: ConA-A647 binding fluorescence, higher = more signal;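 further: z combines 667 nm emission intensity with signal-to-noise across three replicate slides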
MEASURED ENDPOINT: composite z-score

Recorded results for 3 molecules are shown here.
Enquiry: Form: Entry = O=C1C2C=CC(C(O)c3cc(C(F)(F)F)cc(C(F)(F)F)c3)N(Nc3ccccc3)C2C(=O)N1c1ccccc1 (centres undefined) | System = Concanavalin-A (Canavalia ensiformis) (UniProt P02866) | composite z-score = ____
Return: -0.236

Enquiry: Form: Entry = CC(C)CNC(=O)[C@@]1(Cc2ccccc2I)c2ccccc2C(=O)N(Cc2ccccc2C(F)(F)F)[C@H]1c1ccc(CO)cc1 | System = Concanavalin-A (Canavalia ensiformis) (UniProt P02866) | composite z-score = ____
Return: -0.0801

Enquiry: Form: Entry = [N-]=[N+]=NCc1ccccc1[C@@H]1OC(c2ccc(OCCCO)cc2)=N[C@]1(CCS(=O)(=O)c1ccccc1)C(N)=O | System = Concanavalin-A (Canavalia ensiformis) (UniProt P02866) | composite z-score = ____
Return: 0.971

Next:
Enquiry: Form: Entry = C=CC[C@]12N=C(c3ccc(OCCCO)cc3)O[C@H]1c1ccccc1N(CCS(=O)(=O)c1ccccc1)C2=O | System = Concanavalin-A (Canavalia ensiformis) (UniProt P02866) | composite z-score = ____
Return: 1.18

* * *

Measured composite z-score of individual entries
target: Follistatin (Homo sapiens); test: FST protein binding to printed compounds – biochemical, small-molecule microarray, 635/667 nm fluorescence, primary screen (AID 1132); details: 635 nm fluorescence, higher = more signal

Enquiry: Give its composite z-score value. Item: CCCC=C(CCC)[C@@H](NC(=O)OCC(C)C)c1ccccc1
Return: 0.978

Enquiry: Give its composite z-score value. Item: [N-]=[N+]=NCc1ccccc1[C@@H]1OC(c2ccc(OCCCO)cc2)=N[C@]1(CCS(=O)(=O)c1ccccc1)C(=O)N1CCOCC1
Return: 1.16

Next:
Enquiry: Give its composite z-score value. Item: O=C1OCCC/C=C\[C@H]2OC34C=CCN(c5ccc6ccccc6c5)C(=O)[C@H]3N(CCCCCO)C(=O)[C@@H]4C12 (some centres undefined)
Return: -0.472

Enquiry: Give its composite z-score value. Item: O=C(CS)NCCCCCNC(=O)[C@@H]1C[C@@H]2C(=O)NCC(=O)N2[C@@H]1c1ccc(O)cc1
Return: 1.18

* * *

target: Luciferin 4-monooxygenase (Photinus pyralis) (UniProt P08659); assay: inhibition of purified Photinus pyralis luciferase – biochemical, luminescence, purified enzyme, 2006 set, primary screen (AID 1141); conditions: purified firefly luciferase, SteadyGlo luminescence, 30 min, called active from +8 up or from −8 down;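 further: cell-free assay with purified firefly luciferase at 100 ng per well in PBS; test concentration not given here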
Sequence (P08659 whole entry, looked up): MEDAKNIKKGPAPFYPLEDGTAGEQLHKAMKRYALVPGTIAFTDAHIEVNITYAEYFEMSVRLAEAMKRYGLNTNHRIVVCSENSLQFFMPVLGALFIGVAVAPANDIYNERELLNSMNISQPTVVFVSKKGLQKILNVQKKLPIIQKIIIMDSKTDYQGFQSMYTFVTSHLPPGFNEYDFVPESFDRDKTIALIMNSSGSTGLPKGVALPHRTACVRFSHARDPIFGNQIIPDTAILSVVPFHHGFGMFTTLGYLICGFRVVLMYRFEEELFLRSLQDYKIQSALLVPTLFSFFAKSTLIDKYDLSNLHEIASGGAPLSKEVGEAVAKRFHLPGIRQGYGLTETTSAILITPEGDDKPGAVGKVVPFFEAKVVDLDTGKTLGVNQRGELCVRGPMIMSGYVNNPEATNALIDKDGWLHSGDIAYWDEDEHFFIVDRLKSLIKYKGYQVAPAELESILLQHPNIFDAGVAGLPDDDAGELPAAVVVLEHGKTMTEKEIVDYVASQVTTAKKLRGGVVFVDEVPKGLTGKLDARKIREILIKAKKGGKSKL
Active and inactive are the calls of the source.
Choose the fitting class; nothing outside yes = active, no = inactive is accepted.

# example entries with known answers
Enquiry: Call for entry C=CC[C@]12N=C(c3ccc(OCCCO)cc3)O[C@H]1c1ccccc1N(CCS(=O)(=O)c1ccccc1)C2=O :
Return: yes

Enquiry: Call for entry C=CCNC(=O)[C@@H]1[C@H]2C(=O)O[C@H](c3ccccc3)[C@H](c3ccccc3)N2[C@H](c2ccc(OCCO)cc2)[C@@]12C(=O)N(C(=O)OCCOC)c1ccc(C#CCC(C(=O)OC)C(=O)OC)cc12 :
Return: no

Next:
Enquiry: Call for entry COc1ccc(-c2cc3c(c(Cc4ccccc4)n2)[Si](C(C)C)(C(C)C)OC3)cn1 :
Return: no

Enquiry: Call for entry CN1C(=O)C2C=CC(C(O)c3ccccc3)N(N3CCCCC3)C2C1=O (configuration not stated) :
Return: no

Enquiry: Call for entry C=CCC(OC(C)=O)[C@@H]1[C@@H](N(Cc2ccc(-c3ccccc3)cc2)C(=O)Cc2ccc(F)cc2)c2cc(OCCCO)ccc2N1C(=O)c1ccc2ccccc2c1 (some centres not stated) :
Return: no

Enquiry: Call for entry O=C(CS)NCCCCCNC(=O)[C@H]1C[C@H]2C(=O)NCC(=O)N2[C@H]1c1cccc(OCCO)c1 :
Return: no

Enquiry: Call for entry O=C1C2C=CC(C(O)c3cc(C(F)(F)F)cc(C(F)(F)F)c3)N(Nc3ccccc3)C2C(=O)N1c1ccccc1 (configuration not stated) :
Return: no

* * *

Measured composite z-score of individual entries
molecular target: Fibroblast growth factor 2 (Homo sapiens) (UniProt P09038); assay: basic fibroblast growth factor binding to printed compounds – biochemical, small-molecule microarray, 635/667 nm fluorescence, primary screen (AID 1133); conditions: FGF2, fluorescence 635/667, higher = more signal
Sequence (P09038 whole entry, looked up): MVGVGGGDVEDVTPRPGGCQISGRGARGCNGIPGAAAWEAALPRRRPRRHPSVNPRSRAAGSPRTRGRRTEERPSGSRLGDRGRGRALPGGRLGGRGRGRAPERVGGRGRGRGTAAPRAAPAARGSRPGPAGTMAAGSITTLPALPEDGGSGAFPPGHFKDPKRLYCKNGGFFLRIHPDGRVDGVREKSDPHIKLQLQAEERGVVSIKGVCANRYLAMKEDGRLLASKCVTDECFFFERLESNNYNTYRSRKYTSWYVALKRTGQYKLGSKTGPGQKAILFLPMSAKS
API doc: respond with a numeric literal and nothing else, no unit.

Recorded results for 5 molecules are shown here.
Enquiry: Form: Entry = COc1ccc([Si](C)(C)[C@@H]2[C@@H](CCO)O[C@]3(C(=O)N(Cc4cccc(N5CCOC5=O)c4)c4ccccc43)[C@H]2C)cc1 | System = Fibroblast growth factor 2 (Homo sapiens) (UniProt P09038) | composite z-score = ____
Return: 0.568

Enquiry: Form: Entry = C=CC[C@]1(C(=O)NCc2ccccc2)N=C(c2ccc(OCCCO)cc2)O[C@H]1c1ccccc1CN=[N+]=[N-] | System = Fibroblast growth factor 2 (Homo sapiens) (UniProt P09038) | composite z-score = ____
Return: 1.09

Enquiry: Form: Entry = O=C1C2C=CC(C(O)C=Cc3ccc([N+](=O)[O-])cc3)N(Nc3ccccc3F)C2C(=O)N1c1ccccc1 (stereo not drawn) | System = Fibroblast growth factor 2 (Homo sapiens) (UniProt P09038) | composite z-score = ____
Return: 0.211

Enquiry: Form: Entry = O=C(NCc1ccccc1)[C@@H]1c2ccccc2C(=O)N(C2Cc3ccccc3C2)[C@H]1c1ccc(CO)cc1 | System = Fibroblast growth factor 2 (Homo sapiens) (UniProt P09038) | composite z-score = ____
Return: 0.892

Enquiry: Form: Entry = C=CCC(OC(C)=O)[C@@H]1[C@@H](N(Cc2ccc(-c3cccc(C(F)(F)F)c3)o2)C(=O)c2cccc3ccccc23)c2cc(OCCCO)ccc2N1C(=O)Cc1ccc2ccccc2c1 (stereo partly drawn) | System = Fibroblast growth factor 2 (Homo sapiens) (UniProt P09038) | composite z-score = ____
Return: -0.129

Next:
Enquiry: Form: Entry = C=CC[C@]12N=C(c3ccc(OCCCO)cc3)O[C@H]1c1ccccc1N(CCS(=O)(=O)c1ccccc1)C2=O | System = Fibroblast growth factor 2 (Homo sapiens) (UniProt P09038) | composite z-score = ____
Return: 1.38

Enquiry: Form: Entry = O=C1[C@H]2C=C(I)[C@H](C[C@@H]2OCCCCO)[C@@]12CO2 | System = Fibroblast growth factor 2 (Homo sapiens) (UniProt P09038) | composite z-score = ____
Return: -0.0868

Enquiry: Form: Entry = CC(C)C(=C=CC[C@H](O)c1ccc(CO)o1)CCO | System = Fibroblast growth factor 2 (Homo sapiens) (UniProt P09038) | composite z-score = ____
Return: 0.489
